Target: Tubulin
Test: Binding affinity to tubulin (unknown origin)
Format: protein-complex assay, Homo sapiens
// reported pKd per item
Scale: negative log10 of molar concentration, which is what pKd denotes.

{"COMPOUND_STRUCTURE_STRING": "COc1ccc2c(c1OC)C(=O)O[C@@H]2[C@H]1c2c(c(Br)c3c(c2OC)OCO3)CCN1C", "pKd": 4.27}

Now take the following molecule into account.
For the molecule COc1ccc2c(c1OC)CO[C@@H]2[C@H]1c2c(c(Br)c3c(c2OC)OCO3)CCN1C , what pKd is on record?
3.97

* * *

Biological target: Tubulin
Assay: Binding affinity to tubulin (unknown origin) by fluorescence assay
Type: protein-complex assay, Homo sapiens
QUANTITY: pKd
Scale: negative log10 of molar concentration, which is what pKd denotes.

{"COMPOUND_STRUCTURE_STRING": "COc1ccc2c(c1OC)C(=O)O[C@@H]2[C@H]1c2c(c(N)c3c(c2OC)OCO3)CCN1C", "TARGET": "Tubulin", "pKd": 4.85}

For the compound COc1ccc2c(c1OC)C(=O)O[C@@H]2[C@H]1c2c(c([N+](=O)[O-])c3c(c2OC)OCO3)CCN1C , what pKd is on record?
4.07
